Some compounds, each annotated with its measured IC50.
# ASSAYED_SYSTEM: human recombinant HPK1 (Homo sapiens)
# Sequence (Q92918 whole entry): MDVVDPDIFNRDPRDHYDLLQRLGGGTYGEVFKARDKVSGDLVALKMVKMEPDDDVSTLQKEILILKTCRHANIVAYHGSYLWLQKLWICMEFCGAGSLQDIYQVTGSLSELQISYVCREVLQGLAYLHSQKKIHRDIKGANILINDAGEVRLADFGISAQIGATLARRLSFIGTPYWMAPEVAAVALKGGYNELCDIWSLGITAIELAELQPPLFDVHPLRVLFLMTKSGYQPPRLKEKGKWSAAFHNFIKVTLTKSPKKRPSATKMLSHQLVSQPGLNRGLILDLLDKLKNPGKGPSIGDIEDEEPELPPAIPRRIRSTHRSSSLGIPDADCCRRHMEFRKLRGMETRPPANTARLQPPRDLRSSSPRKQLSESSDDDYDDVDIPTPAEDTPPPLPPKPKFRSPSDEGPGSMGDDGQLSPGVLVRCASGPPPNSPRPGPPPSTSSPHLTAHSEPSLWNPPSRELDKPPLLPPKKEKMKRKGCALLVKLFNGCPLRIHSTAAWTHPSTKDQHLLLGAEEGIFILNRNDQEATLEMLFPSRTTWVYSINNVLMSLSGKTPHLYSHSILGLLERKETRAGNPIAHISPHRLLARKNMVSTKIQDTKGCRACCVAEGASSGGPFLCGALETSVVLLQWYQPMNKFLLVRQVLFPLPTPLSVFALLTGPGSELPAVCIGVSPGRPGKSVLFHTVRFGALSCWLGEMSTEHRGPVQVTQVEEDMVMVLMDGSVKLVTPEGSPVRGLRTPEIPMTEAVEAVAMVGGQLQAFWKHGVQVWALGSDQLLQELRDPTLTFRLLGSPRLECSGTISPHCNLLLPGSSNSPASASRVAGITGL
# TEST_NAME: Inhibitory activity against human recombinant HPK1 (TR-FRET)
# EXPERIMENTAL_PARAMETERS: ULight-p70S6K peptide, ATP at Km, room temperature, 1 hour, 0.32 to 1000 nM compound
Structures can show the parent of a compound that is named as a salt.

COMPOUND	ASSAY_RESULT
COc1cccc(F)c1-c1nccc(Nc2cc(N3CCC[C@H](N)C3)c(-c3ccc(N4CCCC4)nc3)cn2)n1 [Example 119, hydrochloride]	≤ 10 nM
COc1cccc(F)c1-c1nccc(Nc2cc(N3CCC[C@H](N)C3)c(C#Cc3cnn(C(F)F)c3)cn2)n1 [Example 164, hydrochloride]	≤ 10 nM
COc1cc(F)cc(F)c1-c1nc(Nc2cc(N3CC[C@@H](F)[C@H](N)C3)c(-c3cnn(C(F)F)c3)cn2)ccc1N [Example 216, hydrochloride]	≤ 10 nM

Assign IC50 to the following record: COc1cc(F)cc(F)c1-c1nc(Nc2cc(N3CC[C@@H](C)[C@H](N)C3)c(-c3cnn(C(F)F)c3)cn2)ccc1N [Example 215, hydrochloride]
≤ 10 nM

Assign IC50 to the following record: COc1cccc(F)c1-c1nccc(Nc2cc(N3CCC[C@H](N)C3)c(-c3cc(C)c4c(c3)CCC(=O)N4)cn2)n1 [Example 262, hydrochloride]
≤ 10 nM

Assign IC50 to the following record: COc1cc(F)cc(F)c1-c1nccc(Nc2cc(N3CCC[C@H](O)C3)c(C#Cc3cnn(CC(F)(F)F)c3)cn2)n1
≤ 10 nM

Assign IC50 to the following record: COc1cc(F)cc(F)c1-c1nc(Nc2cc(N3CCC[C@H](O)C3)c(CCC3CCOCC3)cn2)ccc1N
10 to 50 nM

Assign IC50 to the following record: COC(=O)c1cc(F)c(-c2nccc(Nc3cc(N4CCC[C@H](N)C4)c(-c4cnn(C(F)F)c4)cn3)n2)c(OC)c1 [Example 185, hydrochloride]
≤ 10 nM

Assign IC50 to the following record: CNC[C@@H]1CCCN(c2cc(Nc3ccnc(-c4c(F)cccc4OC)n3)ncc2-c2cnn(C(F)F)c2)C1 [Example 266, hydrochloride]
≤ 10 nM

Assign IC50 to the following record: COc1cccc(F)c1-c1nc(Nc2cc(N3CCC[C@H](N)C3)c(-c3cnn(CC(F)(F)F)c3)cn2)ccc1N [Example 170, hydrochloride]
≤ 10 nM

Assign IC50 to the following record: OCc1csc(-c2nccc(Nc3cc(N4CCC[C@H](O)C4)c(-c4cnn(C5CCOCC5)c4)cn3)n2)c1
10 to 50 nM

Assign IC50 to the following record: CN[C@@H]1CCCN(c2cc(Nc3ccnc(-c4c(F)cccc4OC)n3)ncc2-c2cnn(C(F)F)c2)C1 [Example 123, hydrochloride]
10 to 50 nM

Assign IC50 to the following record: COc1cc(CN(C)C)cc(F)c1-c1nccc(Nc2cc(N3CCC[C@H](N)C3)c(-c3cnn(C(F)F)c3)cn2)n1 [Example 104, hydrochloride]
≤ 10 nM

These measurements were taken from patent US20260347338A1.
